Cited source for all entries: patent US20090209517A1

Assay Protocol: Rotarod test (motor impairment)
Type: in vivo, mice
Settings: male, mouse, in vivo, ip; intraperitoneally, 15 min after administration, 15 r.p.m.
Reported values of ED50 at 15 min for individual entries

Examples from the recorded data:
Compound | ED50 at 15 min
NC(=O)N1c2ccccc2C=Cc2ccccc21 [CBZ, carbamazepine, reference compound] | 29.7 mg/kg
CC(=O)O[C@H]1Cc2ccccc2N(C(N)=O)c2ccccc21 | 139 mg/kg

// switching to the query compound
NC(=O)N1c2ccccc2CC(=O)c2ccccc21 [Oxc, oxcarbazepine, reference compound] yielded ED50 at 15 min of 50.2 mg/kg
